Reported melting point values for a set of compounds

Here are 4 compounds together with their reported answers.
[
  {
    "compound": "O=C(O)[C@@H]1C[C@H](OS(=O)(=O)C2CCCCC2)CN1C(=O)c1ccccc1",
    "melting point": "154 to 172 °C"
  },
  {
    "compound": "CC(=O)NC[C@H]1CN(c2ccc(C3CCOCC3)c(F)c2)C(=O)O1",
    "melting point": "191 to 192 °C"
  },
  {
    "compound": "Cc1nn(-c2ccc(C(F)(F)F)cn2)cc1CCCOc1ccccc1CC(=O)O",
    "melting point": "128 to 129 °C"
  },
  {
    "compound": "O=C(C=Cc1cccnc1)NCCCCC1CCN(C(=O)c2ccccc2)CC1",
    "melting point": "100 to 102 °C"
  }
]

Data request: What melting point value was documented for this compound, O=[N+]([O-])c1cc(-c2cccc3ccccc23)c2nc(Cl)ccc2c1 ?
Data returned: 224 to 225 °C

Data request: Likewise for CCn1c(=O)n(/C(C)=C\SC)c2ccccc21 ?
Data returned: 74 °C
